Listed next: entries and their corresponding GI50.
tested on: SK-MEL-5; test: NCI tumour cell line growth inhibition, 48 h
Calls of active or inactive are those of the source. Cut-off read from the data, not from the text of the source: active = GI50 up to about 1.1 µM and inactive = higher.
value-kind: GI50

| molecule | target-desc | value-kind | recorded-result |
| --- | --- | --- | --- |
| O=C(/C=C\c1ccc(Cl)c(Cl)c1)c1ccc(Cl)cc1Cl | SK-MEL-5 | GI50 | 14.9 µM (inactive) |
| O=C(OC1C(Oc2ccccc2COC(=O)C2(O)C=CCCC2=O)OC(CO)C(O)C1O)c1ccccc1 (stereo unspecified) | SK-MEL-5 | GI50 | 1.28 µM (inactive) |
| O=C1C(Br)=C[C@H]2C3C=CC(Br)(C3=O)[C@@H]12 (stereo partly specified) | SK-MEL-5 | GI50 | 14 µM (inactive) |
| CC[P+](C)(C)CC | SK-MEL-5 | GI50 | > 100 µM (inactive) |
| O=C(Nn1cnn2c(=O)c3ccccc3nc2c1=O)c1ccccc1 | SK-MEL-5 | GI50 | > 100 µM (inactive) |
| Cc1c(Cl)cccc1NC(=O)c1cccc([N+](=O)[O-])c1O | SK-MEL-5 | GI50 | 3.26 µM (inactive) |

----------
tested on: TK-10; assay: NCI tumour cell line growth inhibition, 48 h
The source made the active and inactive calls. Cut-off read from the data, not from the text of the source: active = GI50 up to about 1.1 µM and inactive = higher.
Listed next: entries and their corresponding GI50.
value-kind: GI50

| compound | recorded-result |
| --- | --- |
| NS(=O)(=O)c1ccc(NCc2cnc3ccccc3n2)cc1 | > 100 µM (inactive) |
| Cc1cc(C)c(/N=N/c2c(O)c(S(=O)(=O)O)cc3cc(S(=O)(=O)O)ccc23)cc1C | > 100 µM (inactive) |
| COc1ccc2nccc(C3OC(=O)N4CCC(=O)CC34)c2c1 (stereo not given) | > 100 µM (inactive) |
| CC(=O)O[C@H]1CC[C@@]2(C)C(CC[C@]3(C)C2CC[C@]2(C)Oc4c(C)cc(O)cc4C[C@@H]23)C1(C)C (stereo not given in full) | 13.2 µM (inactive) |
| CCOP1(=O)CC(C)=C(Cl)C(O)C1 (stereo not given) | > 100 µM (inactive) |
| O=C1C(NCCF)=C(Cl)C(=O)c2ncccc21 | 1.81 µM (inactive) |
| O=S(=O)(NC(c1ccccc1)(c1cc2ccccc2[nH]1)c1cc2ccccc2n1S(=O)(=O)c1ccccc1)c1ccccc1 (stereo not given) | > 100 µM (inactive) |
| OC[C@@H](O)[C@H](O)[C@H](O)[C@@H](O)C1SCCCS1 | > 100 µM (inactive) |
| C=CCN(c1cc(OCc2ccccc2)c2[nH]cc(C)c2c1)S(C)(=O)=O | 92.3 µM (inactive) |
| CCOC(=O)C1S/C(=N\c2ccc(OC)c(OC)c2)N=C1C (stereo not given) | 75.9 µM (inactive) |

----------
tested on: SR; assay: NCI tumour cell line growth inhibition, 48 h
Activity calls are given as the source filed them. No stated cut-off is given here; in the data, active = GI50 up to about 1.1 µM and inactive = higher. Square brackets hold non-standard residues; d marks the D form. Peptide text beside a SMILES is read from it. * marks the point of attachment. AllylGly = C=CC[CH](N)C(=O)O; Boc = CC(C)(C)OC(=O)*; OtBu = CC(C)(C)O*
Possible outcomes: active, inactive

| compound | class-name |
| --- | --- |
| O=C1/C=C(/c2ccc(O)cc2)[C@@H](OC2OC(CO)C(O)C(O)C2O)Cc2ccc(O)cc2O1.O=C1/C=C(/c2ccc(O)cc2)[C@H](O)Cc2ccc(O[C@@H]3OC(CO)C(O)C(O)C3O)cc2O1 (stereo partly specified) | active |
| Cc1cc(NCCCCCCNc2cc(C)nc3ccc(Cl)cc23)c2cc(Cl)ccc2n1 | inactive |
| CN(C)Cc1cc(C(=O)/C=C/c2ccc(/C=C/C(=O)c3cc(CN(C)C)c(O)c(CN(C)C)c3)cc2)cc(CN(C)C)c1O | inactive |
| CCOC(=O)c1ccc(NCC#CCN2CCOCC2)cc1 | inactive |
| CC1(C)N=C(N)N=C(N)N1c1ccc(CCCCCCc2ccc(S(=O)(=O)F)cc2)cc1 | active |
| O=C1NC(=O)C(F)(n2cc(F)c(=O)[nH]c2=O)C(O)N1 (stereo unspecified) | inactive |
| O=C(/C=C\c1ccc(Cl)c(Cl)c1)c1ccc(Cl)cc1Cl | inactive |
| COc1cc(-c2cc(=O)c3c(O)c(CC=C(C)C)c(O)cc3o2)ccc1O | inactive |
| CC(C)CC(NC(O)[BH2-][N+](C)(C)C)C(=O)NC(Cc1ccccc1)C(=O)N[C@H]1c2ccsc2/C(=N/O)[C@H]1O (stereo partly specified) | inactive |
| O=C([O-])C(O)C(O)C(=O)O.[K+] (stereo unspecified) [POTASSIUM HYDROGENTARTRATE] | inactive |
| Nc1nc2c(C(=O)O)c3ccc([N+](=O)[O-])cc3c(=O)n2c2ccccc12 | inactive |
| COCC(/N=C\N1CCCc2ccccc2[C@@H]1CCCCl)C(C)(C)C (stereo partly specified) | inactive |
| C=CCC(NC(=O)C(CC(=O)OC(C)(C)C)NC(=O)OC(C)(C)C)C(=O)OC (stereo unspecified) (Boc-Asp(OtBu)-[AllylGly]-OMe; configuration not given here) | inactive |
| COC1CC(OC2OC(CO)C(O)C(O)C2O)/C(=C\C#N)C(O)C1OC (stereo unspecified) | inactive |
| CC(C(=O)c1ccccc1)C(c1ccccc1)N1CCOCC1 (stereo unspecified) | inactive |
| CCCCCCc1cc2cc(-c3cn4ccccc4n3)c(=O)oc2cc1O | inactive |
| CC1(C)OCC(C2OC(On3nnc4ccc(Cl)cc43)C3OC(C)(C)OC23)O1 (stereo unspecified) | inactive |
| CCN(CC)CCC(=O)c1ccc(Cl)c(Cl)c1 | inactive |
| COC(=O)/C=c1/c2ccccc2n2nc3ccccc3c12 | inactive |
| CC(C)(C)N1CC2(CCCCC2)C1=O | inactive |
| CCN(CCCl)c1cc(CN(C)C)cc(NC(=O)c2ccc(C(=O)Nc3ccccc3)cc2)c1 | active |
| Cc1nc2c(O)c3c(c(O)c2nc1C)C1C=CC3CC1 | inactive |
| N=C(N)SCc1cccc2c(=O)cc(-c3ccccc3)oc12 | inactive |
| CSc1s[s+]c(SC)c1[O-] | inactive |
| COc1c(-c2nc3ccc(N4CCN(C)CC4)cc3[nH]2)cc(OC)c2[nH]c(CO)nc12 | inactive |
| CCN(CC)Cc1cc(Nc2c3ccccc3nc3c4ccccc4n(C)c23)cc(CN(CC)CC)c1O | inactive |
| c1ccc2c(c1)ccn1ccc3c4ccccc4nc-3c21 | active |
| COC(NC(=O)Nc1ccc(C)cc1)(C(F)(F)F)C(F)(F)F | inactive |
| CC(=O)c1c(P(=O)(OC(C)C)OC(C)C)nn(-c2ccc([N+](=O)[O-])cc2)c1C | inactive |
| CC(=O)SCCC(NC(=S)Nc1ccccc1)P(=O)(Oc1ccccc1)Oc1ccccc1 (stereo unspecified) | inactive |
| Cc1nn(C(=O)Cc2ccccc2)c2c1C(c1ccccc1[N+](=O)[O-])SC(=N)N2 (stereo unspecified) | inactive |
